Reported protein stability index values for a set of variants
B1: TTC32 (parent)
chain: YSAYIRRCACAASSDESPGSKCSP

variants of: B1; assay: protein stability index of a GFP-peptide fusion (GPS, HEK-293T) (PSI 1-6); higher = more stable; conditions: c terminus: a fixed tail appended;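 further: lentivirally expressed fusions sorted by FACS into six bins by GFP to DsRed ratio, PSI derived from sequencing read proportions per bin multiplied by bin number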
measured_attribute: protein stability index

• A12L = 1.87
• S20N = 2.11
• A11R = 1.74
• Y1S = 2.54
• A11F = 2.11
• D15S = 2.41
• C10M = 1.97
• S23C = 2.26
• P18F = 2.68
• S2R = 1.82
• S23Y = 1.5
• A11S = 1.95
• A9T = 2.14
• P18W = 2.63
• K21S = 1.86
• E16R = 1.62
• R6Q = 2
• A3I = 1.51
• C10G = 3.46
• C22Q = 2.02
• A11M = 1.83
• A9M = 1.96
